experiment: log P by HPLC on reversed-phase column (C 18), EEC Directive 79/831 Annex V.A8; format: physicochemical; settings: HPLC on reversed-phase column (C 18); 40° C.; 0.1% aqueous formic acid and acetonitrile; linear gradient 10% to 90% acetonitrile
metric: logP

Please review the following examples before continuing.
| compound | logP |
| --- | --- |
| CCc1noc(C)c1C(=O)N1CCCCC1c1ccc2c(c1)OCCO2 (stereo not shown) [Example 61] | 2.82 |
| Cc1cccc(CC2CCCCN2C(=O)c2sc(C)nc2C(F)F)c1 (stereo not shown) [Example 145] | 3.57 |
| Cc1nn(C)c(F)c1C(=O)N1CCCCC1c1ccc(Cl)cc1 (stereo not shown) [Example 51] | 2.98 |
| Cn1nc(C(F)F)c(C(=S)N2CCCCC2c2ccccc2Br)c1F (stereo not shown) [Example 92] | 3.92 |
| Cc1cccc(CC2CCCCN2C(=O)c2cc(C)oc2C)c1 (stereo not shown) [Example 143] | 3.96 |

I would be grateful if you could share the reported logP for Cn1nc(C(F)F)c(C(=O)N2CCCCC2CCOc2ccc3ccccc3c2)c1Cl (stereo not shown) [Example 190] .
4.09

I would be grateful if you could share the reported logP for CCc1noc(C)c1C(=O)N1CCCCC1CCc1ccccc1 (stereo not shown) [Example 174] .
3.44

I would be grateful if you could share the reported logP for Cn1nc(C(F)F)c(C(=O)N2CCCCC2CCOc2ccccc2-c2ccccc2)c1F (stereo not shown) [Example 187] .
4.21

I would be grateful if you could share the reported logP for Cc1cc(C)cc(OCCC2CCCCN2C(=O)c2c(C(F)F)nn(C)c2Cl)c1 (stereo not shown) [Example 180] .
4.11

I would be grateful if you could share the reported logP for CCc1nn(C)c(F)c1C(=O)N1CCCCC1Cc1ccccc1 (stereo not shown) [Example 131] .
2.92

I would be grateful if you could share the reported logP for CCc1nn(C)c(F)c1C(=O)N1CCCCC1c1cc(Cl)ccc1Cl (stereo not shown) [Example 82] .
3.67

I would be grateful if you could share the reported logP for Cc1nn(C)c(F)c1C(=O)N1CCCCC1c1ccc(Cl)cc1Cl (stereo not shown) [Example 76] .
3.39

I would be grateful if you could share the reported logP for Cn1nc(C(F)F)c(C(=S)N2CCCCC2c2ccccc2Cl)c1F (stereo not shown) [Example 42] .
4.00

I would be grateful if you could share the reported logP for Cc1nn(C)c(F)c1C(=O)N1CCCCC1c1ccc2c(c1)OCCO2 (stereo not shown) [Example 64] .
2.39
